- Tested on: MEK2
- Construct: gene MAP2K2
REPORTED METRIC: Kd (nM)

>  <COMPOUND>
COc1cc2nccc(Nc3cccc(Oc4ccccc4)c3)c2cc1OC.Cl [GW284543]

>  <TEST SYSTEM>
MEK2;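 also: kd values determined as follow-up on hits from a single-replicate KINOMEscan panel screen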

>  <VALUE OBSERVED>
270

$$$$

* * *

Below: a set of entries, each annotated with reported %Inh.
- Tested on: TNK1;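 also: KINOMEscan kinase panel screen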
- COND: concentration: 1 μM, replicates: in singlicate; n = 1

>  <COMPOUND STRING>
CN1C(=O)C(Nc2cc(Cl)c(O)c(Cl)c2)=C(c2ccc(Cl)cc2)C1=O

>  <DISPLAY UNIT>
%

>  <%Inh>
22

$$$$
>  <COMPOUND STRING>
COc1ccc(-c2coc3ccc(-c4nnc(SCc5cccc(C#N)c5)o4)cc23)cc1

>  <DISPLAY UNIT>
%

>  <%Inh>
10

$$$$
>  <COMPOUND STRING>
Cc1nnc(-c2ccc(C)c(-c3ccc(C(=O)O)cc3)c2)o1

>  <DISPLAY UNIT>
%

>  <%Inh>
0

$$$$
>  <COMPOUND STRING>
FC(F)(F)c1ccc(-c2ncn(CCCN3CCOCC3)c2-c2ccncc2)cc1

>  <DISPLAY UNIT>
%

>  <%Inh>
1

$$$$
>  <COMPOUND STRING>
COc1ccc(-n2cnc3c(N)ncnc32)cc1

>  <DISPLAY UNIT>
%

>  <%Inh>
0

$$$$
>  <COMPOUND STRING>
Cc1ccccc1COc1cc(-n2cnc3cc(Cl)ccc32)sc1C(N)=O

>  <DISPLAY UNIT>
%

>  <%Inh>
12

$$$$
>  <COMPOUND STRING>
Nc1ncnc2c1ncn2-c1ccc(Cl)cc1

>  <DISPLAY UNIT>
%

>  <%Inh>
0

$$$$
>  <COMPOUND STRING>
COc1cc2nccc(Nc3cccc(Oc4ccccc4)c3)c2cc1OC.Cl

>  <DISPLAY UNIT>
%

>  <%Inh>
0

$$$$
>  <COMPOUND STRING>
CCC(=O)c1c(-c2ccccc2)c2cc(Cl)ccc2c(=O)n1Cc1cc(S(C)(=O)=O)n(CC(N)=O)n1

>  <DISPLAY UNIT>
%

>  <%Inh>
0

$$$$
